// values below are reported MBEC
system: M. abscessus MABS4 biofilm; test: MBEC assay (minimum biofilm eradication concentration); assay type: cell-based; settings: 18 h challenge
endpoint: MBEC

[[record]]
smiles_input = "NCC[C@H](O)C(=O)N[C@@H]1C[C@H](N)[C@@H](O[C@H]2O[C@H](CN)[C@@H](O)[C@H](O)[C@H]2O)[C@H](O)[C@H]1O[C@H]1O[C@H](CO)[C@@H](O)[C@H](N)[C@H]1O"
endpoint = "MBEC"
test_result = "8 µg/mL"

[[record]]
smiles_input = "CO[C@@]1(NC(=O)Cc2cccs2)C(=O)N2C(C(=O)O)=C(COC(N)=O)CS[C@@H]21"
endpoint = "MBEC"
test_result = ">128 µg/mL"

[[record]]
smiles_input = "C[C@@H](O)[C@H]1C(=O)N2C(C(=O)O)=C(SCCN=CN)C[C@H]12"
endpoint = "MBEC"
test_result = ">64 µg/mL"

